# ASSAY_TARGET: BRM (Homo sapiens)
# Sequence (P51531 whole entry): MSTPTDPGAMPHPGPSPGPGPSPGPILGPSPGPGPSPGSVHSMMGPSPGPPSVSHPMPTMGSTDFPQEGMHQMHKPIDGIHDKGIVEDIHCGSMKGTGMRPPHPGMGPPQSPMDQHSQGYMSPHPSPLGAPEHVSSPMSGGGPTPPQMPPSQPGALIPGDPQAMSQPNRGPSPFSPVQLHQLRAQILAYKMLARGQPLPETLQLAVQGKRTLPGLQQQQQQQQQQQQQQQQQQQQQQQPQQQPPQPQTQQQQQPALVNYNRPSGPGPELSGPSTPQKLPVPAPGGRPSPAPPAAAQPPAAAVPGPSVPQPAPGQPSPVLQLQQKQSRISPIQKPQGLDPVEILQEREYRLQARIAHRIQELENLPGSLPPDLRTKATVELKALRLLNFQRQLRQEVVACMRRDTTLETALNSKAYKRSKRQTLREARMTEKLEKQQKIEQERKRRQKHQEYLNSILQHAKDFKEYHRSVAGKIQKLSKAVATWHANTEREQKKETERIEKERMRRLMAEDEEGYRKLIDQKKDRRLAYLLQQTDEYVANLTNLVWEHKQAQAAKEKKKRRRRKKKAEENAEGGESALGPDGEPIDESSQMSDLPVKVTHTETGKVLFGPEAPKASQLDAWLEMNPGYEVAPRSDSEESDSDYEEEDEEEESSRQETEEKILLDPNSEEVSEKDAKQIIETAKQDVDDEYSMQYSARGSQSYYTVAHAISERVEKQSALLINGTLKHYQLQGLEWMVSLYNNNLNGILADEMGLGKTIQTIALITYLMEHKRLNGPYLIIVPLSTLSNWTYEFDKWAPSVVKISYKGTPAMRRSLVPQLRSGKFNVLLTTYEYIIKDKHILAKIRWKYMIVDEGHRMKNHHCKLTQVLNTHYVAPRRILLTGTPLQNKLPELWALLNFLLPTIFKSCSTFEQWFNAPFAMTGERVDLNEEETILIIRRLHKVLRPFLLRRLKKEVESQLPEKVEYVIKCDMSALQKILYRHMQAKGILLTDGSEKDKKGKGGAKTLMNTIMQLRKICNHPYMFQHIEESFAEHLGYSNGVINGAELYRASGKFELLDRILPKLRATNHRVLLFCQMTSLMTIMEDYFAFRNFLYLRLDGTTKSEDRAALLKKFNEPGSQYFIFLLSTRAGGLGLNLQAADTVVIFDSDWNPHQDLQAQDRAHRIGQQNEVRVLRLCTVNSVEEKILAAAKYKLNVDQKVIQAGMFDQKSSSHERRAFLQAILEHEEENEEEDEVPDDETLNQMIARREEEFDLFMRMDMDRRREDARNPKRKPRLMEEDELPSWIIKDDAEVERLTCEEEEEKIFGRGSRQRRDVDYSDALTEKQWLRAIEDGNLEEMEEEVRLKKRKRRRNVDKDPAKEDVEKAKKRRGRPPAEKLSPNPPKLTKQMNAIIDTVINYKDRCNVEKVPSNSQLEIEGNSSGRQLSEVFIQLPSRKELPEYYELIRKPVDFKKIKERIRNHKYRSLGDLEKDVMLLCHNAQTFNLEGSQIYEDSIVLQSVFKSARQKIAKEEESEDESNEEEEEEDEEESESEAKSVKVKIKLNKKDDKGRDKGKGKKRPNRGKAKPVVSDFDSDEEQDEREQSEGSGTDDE
# ASSAY_EXPLANATION: Immunofluorescence assay for BRM degradation in SW1573 cells
# Assay type: cell-based
# Parameters: treated overnight at 4° C. with either BRM primary antibody (Cell signaling Cat #11966) or BRG primary antibody; endogenous in cells; host or cells: SW1573
# EXPERIMENTAL_PARAMETERS: 20 hours incubation, immunofluorescence mean nuclear signal, read-out: BRM IF Degradation IC50
OBSERVED_PROPERTY: DC50

Req: Jot down DC50 (BRM (Homo sapiens)) of CC1CCN1CC#Cc1cc(N2C3CCC2CN(c2cc(-c4ccccc4O)nnc2N)C3)ccn1 (stereo not shown) [Compound 184] .
Resp: < 10 nM

***
Req: // fetch DC50; item: COC1C2CCC1N(CC#Cc1cc(N3C4CCC3CN(c3cc(-c5ccccc5O)nnc3N)C4)ccn1)C2 (stereo not shown) [Compound 82] ; system: BRM (Homo sapiens)
Resp: < 10 nM

Req: For BRM (Homo sapiens), give DC50 of the listed compound: CNC(=O)[C@@H]1CCCN1CC#Cc1cc(N2C3CCC2CN(c2cc(-c4ccccc4O)nnc2N)C3)ccn1 [Compound 163]
Resp: 10 to 100 nM

Req: # return DC50 for Nc1nnc(-c2ccccc2O)cc1N1CC2CCC(C1)N2c1ccnc(C#CCN2CC3(C2)C(CF)CCS3(=O)=O)c1 (stereo not shown) [Compound 177] , test system: BRM (Homo sapiens)
Resp: 10 to 100 nM

Req: Lab note: BRM (Homo sapiens) assay, enter DC50 for Nc1nnc(-c2ccccc2O)cc1N1CC2CCC(C1)N2c1ccnc(C#CCN2CC3CCCC(C2)O3)c1 [Compound 101] here
Resp: 10 to 100 nM

Req: Enter measured DC50, system BRM (Homo sapiens), for the compound shown: Nc1nnc(-c2ccccc2O)cc1N1CC2CCC(C1)N2c1ccnc(C#CCC2CCNC2)c1 (stereo not shown) [Compound 34]
Resp: > 100 nM

Values from patent US11993599B2
